# Organism: Rattus norvegicus
# EXPERIMENTAL_PROTOCOL: Open TG-GATES - Regimen: Daily Repeat
# Type: toxicity, organism-based, Sprague-Dawley
# Design: regimen Daily Repeat, gender Male, age 6 weeks
# SETTINGS: in vivo, po, 0 mg/kg, […], tissue Plasma, route gavage, dose level Control, time 7 day
Assignment: determine reported TP for the given molecules.
Give bare numbers, in g/dL.

INSERT INTO assay_data (molecule, measured_metric, recorded_value) VALUES
  ('CN(C)C(=N)N=C(N)N', 'TP', 5.9),
  ('CCc1oc2ccccc2c1C(=O)c1cc(Br)c(O)c(Br)c1', 'TP', 6.1),
  ('ClC(Cl)(Cl)Cl [CARBON TETRACHLORIDE]', 'TP', 5.5),
  ('CC1=C(CC(=O)O)c2cc(F)ccc2/C1=C\c1ccc([S+](C)[O-])cc1 (stereo unspecified)', 'TP', 5.7),
  ('CN(C)CCC=C1c2ccccc2COc2ccccc21 [DOXEPIN]', 'TP', 5.8);

Quick one: give me TP for each item below, same order please.
1. CC(C)N(CCC(C(N)=O)(c1ccccc1)c1ccccn1)C(C)C (stereo unspecified) [DISOPYRAMIDE]
2. OCCOCCN1CCN(C(c2ccccc2)c2ccc(Cl)cc2)CC1 (stereo unspecified) [HYDROXYZINE]
3. O=NN(CCCl)C(=O)NC1CCCCC1
4. CCC1(c2ccccc2)C(=O)NC(=O)NC1=O
5. CCCCc1oc2ccccc2c1C(=O)c1cc(I)c(OCCN(CC)CC)c(I)c1
6. CC[C@H]1[C@@H]2C[C@H]3[C@@H]4N(C)c5ccccc5[C@]45C[C@@H]([C@@H]2[C@H]5O)N3[C@@H]1O

Output:
1: 5.6; 2: 5.8; 3: 6.1; 4: 5.9; 5: 5.6; 6: 5.7
